Values compiled from patent US20100137446A1.

system_under_test: MT1 receptor (Homo sapiens, UniProt P48039)
Sequence (P48039 whole entry): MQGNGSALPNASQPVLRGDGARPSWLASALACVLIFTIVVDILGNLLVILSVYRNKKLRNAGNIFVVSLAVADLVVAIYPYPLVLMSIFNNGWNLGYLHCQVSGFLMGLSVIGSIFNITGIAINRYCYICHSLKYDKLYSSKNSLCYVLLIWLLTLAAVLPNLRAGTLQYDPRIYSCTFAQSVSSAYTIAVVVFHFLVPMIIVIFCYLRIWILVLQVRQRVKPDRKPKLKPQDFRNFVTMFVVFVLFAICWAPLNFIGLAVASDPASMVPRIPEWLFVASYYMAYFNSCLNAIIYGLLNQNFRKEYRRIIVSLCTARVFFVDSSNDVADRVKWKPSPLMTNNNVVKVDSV
quantity_measured: pKi
Interpret pKi as the negative base-10 log of the concentration measured in mol/L.

INPUT: # lookup: pKi of COc1ccc2cccc(C(CF)CNC(C)=O)c2c1 (stereo not shown) [Example 5]
OUTPUT: 10.00
